Tested on: Fer (mouse)
Assay: phosphorylation enrichment, bacterial display (enrichment ratio); higher = better substrate or ligand; peptides without Tyr show the background;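 note: 11-residue human phosphosite peptides and single-mutation variants displayed on the E. coli surface, counted by deep sequencing, each peptide's frequency after selection divided by its frequency in the unselected input library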;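 note: frequency after pTyr selection over input frequency; kinase dosed for 20-30% of maximal phosphorylation in three min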
Listing of entries alongside the reported phosphorylation enrichment.
observed.property: phosphorylation enrichment

1) AGVDRYSLGTS [C5orf42_Y1451_P1446A] | 0.398
2) RGKDSYETSQL [SPP1_Y225] | 0.594
3) FRGFSYDDIPD [TMEM230_Y112_YF] | 0.405
4) FLLTVYSIFSK [SGCE_Y38] | 0.594

----------
Biological target: EPHB2 (UniProt P29323)
Sequence (P29323 whole entry, looked up): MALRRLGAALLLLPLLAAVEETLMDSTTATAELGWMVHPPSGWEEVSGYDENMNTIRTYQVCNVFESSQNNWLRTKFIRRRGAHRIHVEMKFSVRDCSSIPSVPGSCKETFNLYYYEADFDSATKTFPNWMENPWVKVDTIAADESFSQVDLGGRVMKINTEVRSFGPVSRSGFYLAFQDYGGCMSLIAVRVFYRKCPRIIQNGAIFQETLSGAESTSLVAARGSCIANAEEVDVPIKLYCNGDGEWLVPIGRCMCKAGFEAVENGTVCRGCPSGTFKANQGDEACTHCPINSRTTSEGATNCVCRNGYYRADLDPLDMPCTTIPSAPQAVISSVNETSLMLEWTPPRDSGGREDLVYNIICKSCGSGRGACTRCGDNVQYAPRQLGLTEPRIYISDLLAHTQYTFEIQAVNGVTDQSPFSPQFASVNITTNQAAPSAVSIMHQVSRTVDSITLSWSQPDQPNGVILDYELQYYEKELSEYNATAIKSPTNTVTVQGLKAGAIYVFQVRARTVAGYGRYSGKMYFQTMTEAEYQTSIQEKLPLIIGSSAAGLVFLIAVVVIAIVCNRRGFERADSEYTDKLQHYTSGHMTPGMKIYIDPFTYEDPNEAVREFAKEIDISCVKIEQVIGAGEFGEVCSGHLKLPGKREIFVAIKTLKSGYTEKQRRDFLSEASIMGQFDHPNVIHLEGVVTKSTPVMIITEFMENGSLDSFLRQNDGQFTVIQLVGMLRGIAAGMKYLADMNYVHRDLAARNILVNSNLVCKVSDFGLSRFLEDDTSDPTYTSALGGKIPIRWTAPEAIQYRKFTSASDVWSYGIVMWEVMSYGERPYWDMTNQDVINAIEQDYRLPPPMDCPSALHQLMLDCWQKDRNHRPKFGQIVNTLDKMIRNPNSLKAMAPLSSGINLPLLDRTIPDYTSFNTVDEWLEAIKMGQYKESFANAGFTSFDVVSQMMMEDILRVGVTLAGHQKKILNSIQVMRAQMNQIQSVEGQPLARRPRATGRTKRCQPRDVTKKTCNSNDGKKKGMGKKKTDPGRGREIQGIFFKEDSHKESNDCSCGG
Experiment: phosphorylation enrichment, bacterial display (enrichment ratio); higher = better substrate or ligand; peptides without Tyr show the background
Listing of entries alongside the reported phosphorylation enrichment.
observed.property: phosphorylation enrichment

1. TYTVSYLPDMS [FLNC_Y1602] | 0.705
2. AFLGEYIPTVF [RAC2_Y32_P29L] | 0.499
3. DERQPYVHMNG [IGF1R_Y1346_A1347V] | 0.5
4. AFLEDYFTSTK [SRC_Y522_E527K] | 0.492

----------
System: c-Abl (mouse)
Test: phosphorylation enrichment, bacterial display (enrichment ratio); higher = better substrate or ligand; peptides without Tyr show the background
Listing of entries alongside the reported phosphorylation enrichment.
observed.property: phosphorylation enrichment

1) DSILVYQGKEQ [USH2A_Y1909] | 0.536
2) GIVEEYQLPYY [BMPR1A_Y453] | 1.16
3) VNTTLYEKFTY [TEK_Y1108] | 0.908
4) APGNAYGDAGF [SYP_Y250_D248N_YF] | 0.443
5) AELVRYFMEHH [PTPN11_Y80_Q79R_YF] | 0.493
6) RSFLSYYTSHV [NEFL_Y442_P440L] | 0.606
7) PPGRSYSPCDF [TNS1_Y793_Y796C_YF] | 0.902
8) ASTDYNKRGDF [PDHA1_Y243_Y243N] | 0.469
9) SGVSFYINLCQ [IGF2R_Y2025_N2020S_YF] | 1.04
10) LLRFLYFFVCS [SLC34A2_Y109_G106R] | 0.697
11) SRLSAYPALEG [CD5_Y465_H461R] | 0.471
12) RRNEIYEIKVD [LGR5_Y387_H383R] | 0.574
13) NNPAFYVLEGV [INPPL1_Y987_YF] | 0.616
14) INMKEYCKKDF [NTN1_Y490_K489E_YF] | 0.791
15) DEEPPYRGPFC [SASH1_Y551] | 0.673
16) GLAELYEYQKK [CKAP5_Y1854_K1857Q] | 0.529
17) AQMAMYFWEMG [TRPM4_Y577] | 1.11
18) AVPSLYASGRT [ACTA1_Y145_L142P] | 0.538
19) KILTHYKRPHT [KMT2D_Y5349] | 0.579
20) KKLEVYQSIAD [MYBPC3_Y548] | 0.55
21) RTLSEYARPHV [RERE_Y1259] | 31.7
22) SFKNKYGMVAQ [APOB_Y276_YF] | 0.465

----------
Biological target: EPHB1 (UniProt P54762)
Sequence (P54762 whole entry, looked up): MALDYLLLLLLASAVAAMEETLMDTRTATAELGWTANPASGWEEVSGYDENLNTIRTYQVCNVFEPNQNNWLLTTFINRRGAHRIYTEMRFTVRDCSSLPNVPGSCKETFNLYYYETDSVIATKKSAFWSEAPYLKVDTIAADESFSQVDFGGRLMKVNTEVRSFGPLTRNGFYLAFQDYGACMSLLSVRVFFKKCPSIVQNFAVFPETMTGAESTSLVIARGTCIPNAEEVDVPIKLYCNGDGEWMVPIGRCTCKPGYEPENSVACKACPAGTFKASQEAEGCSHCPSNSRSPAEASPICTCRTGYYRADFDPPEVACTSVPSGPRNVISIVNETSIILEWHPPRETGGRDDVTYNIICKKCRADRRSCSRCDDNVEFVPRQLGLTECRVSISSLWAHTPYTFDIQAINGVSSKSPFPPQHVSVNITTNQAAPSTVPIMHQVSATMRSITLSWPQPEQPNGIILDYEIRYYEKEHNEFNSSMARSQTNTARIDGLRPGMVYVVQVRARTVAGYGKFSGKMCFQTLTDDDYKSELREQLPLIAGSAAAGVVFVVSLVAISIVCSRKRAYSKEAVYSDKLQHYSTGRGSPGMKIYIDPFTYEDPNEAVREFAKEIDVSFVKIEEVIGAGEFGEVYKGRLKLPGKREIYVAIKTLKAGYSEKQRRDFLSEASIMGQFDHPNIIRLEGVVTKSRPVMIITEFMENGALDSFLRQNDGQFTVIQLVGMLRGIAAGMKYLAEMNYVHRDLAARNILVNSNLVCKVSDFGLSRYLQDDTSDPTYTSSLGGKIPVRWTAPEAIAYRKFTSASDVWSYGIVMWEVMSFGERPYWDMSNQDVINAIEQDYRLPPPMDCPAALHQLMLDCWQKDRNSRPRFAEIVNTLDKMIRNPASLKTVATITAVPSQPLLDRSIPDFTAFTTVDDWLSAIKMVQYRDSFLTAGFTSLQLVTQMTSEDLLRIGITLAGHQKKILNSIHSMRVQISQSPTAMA
Test: phosphorylation enrichment, bacterial display (enrichment ratio); higher = better substrate or ligand; peptides without Tyr show the background
# label = bin(measured phosphorylation enrichment), where bins are bottom end (below 0.5), midrange (0.5 to below 0.7), top end (0.7 or more)

1. SGGCSYGSGGG [KRT1_Y539_G537C] | bottom end
2. SLEKSYELPDG [ACTA1_Y242] | midrange
3. LPKEQYLYTKE [AFG3L2_Y614] | top end
4. MKGDYYRSLAE [YWHAG_Y131_Y133S] | bottom end
5. IKETHYMVDRC | bottom end
6. LITTLYIGFLD [KCNQ1_Y267_G272D] | top end
7. IFLADCRIMEG [ALOX12B_Y318_Y318C_YF] | top end
8. MGSFNYLGFAR [SPTLC2_Y178_YF] | top end
9. LEIETDRRLLD [KRT12_Y429_Y429D] | top end
10. AFLEDYFTSTK [SRC_Y522_E527K] | bottom end
11. EIIPFYGMSSY [FNDC3B_Y175_T179S] | midrange
12. TTPGPHRSIYF [MPG_Y71_Y71H] | bottom end
13. QDEPTYARSSK [PEAK1_Y616_H611Q] | bottom end
14. GSPAPYRRRKR [MBD1_Y403_P401A] | bottom end
15. FSQQTYFRVSN [ABCD1_Y180_YF] | midrange
16. DGQVNYEELVQ [CALM1_Y139_F142L] | top end
17. LMQAEYWHDPI [PPT1_Y185_V181M] | top end
18. IEDNKYTAREG [HCK_Y411_E410K] | midrange

----------
Target: Hck (UniProt P08631)
Sequence (P08631 whole entry, looked up): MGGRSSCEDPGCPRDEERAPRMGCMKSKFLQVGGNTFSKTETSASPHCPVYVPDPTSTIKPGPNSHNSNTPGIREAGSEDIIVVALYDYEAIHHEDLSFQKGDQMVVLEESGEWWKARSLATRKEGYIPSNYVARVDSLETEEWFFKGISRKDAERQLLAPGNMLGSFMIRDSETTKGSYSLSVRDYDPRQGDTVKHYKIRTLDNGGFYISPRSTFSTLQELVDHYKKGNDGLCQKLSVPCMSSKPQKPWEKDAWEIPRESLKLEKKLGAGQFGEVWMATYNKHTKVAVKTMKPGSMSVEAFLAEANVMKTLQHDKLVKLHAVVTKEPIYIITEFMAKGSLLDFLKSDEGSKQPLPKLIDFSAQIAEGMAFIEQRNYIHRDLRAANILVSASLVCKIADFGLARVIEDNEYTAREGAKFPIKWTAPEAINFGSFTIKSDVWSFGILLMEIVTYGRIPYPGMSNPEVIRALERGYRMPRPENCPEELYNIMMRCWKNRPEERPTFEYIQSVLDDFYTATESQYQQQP
Experiment: phosphorylation enrichment, bacterial display (enrichment ratio); higher = better substrate or ligand; peptides without Tyr show the background
Record Yes whenever phosphorylation enrichment is at 0.6 or higher; record No when lower.

1) KRLDGYVLEGR [IGSF9_Y656] | No
2) QDEPTYARSSK [PEAK1_Y616_H611Q] | Yes
3) VVRSLYEDLED [VHL_Y185_I180V] | No
4) TLAHKYHGGGG [HBB_Y146_A141T] | Yes
5) EPDSLYGCGRG [ATM_Y2019_G2023R] | Yes
6) WAFNLYDINKD [KCNIP3_Y174] | Yes
7) AIGFEYSEINI [SIGLEC12_Y588_YF] | Yes
8) PRNLIYFGEHP [TRPV6_Y201_C197R] | Yes
9) IVEYAYNDKAV [PUM3_Y259_I264V] | No
10) PDKRIYQFTAA [SKAP2_Y197] | No
11) SVVVPYEPTEV [TP53_Y220_P223T] | No

----------
Listing of entries alongside the reported phosphorylation enrichment.
Test system: c-Src
Assay: phosphorylation enrichment, bacterial display (enrichment ratio); higher = better substrate or ligand; peptides without Tyr show the background
observed.property: phosphorylation enrichment

1) SSFPDYLAAVD [GLB1_Y154_D151Y_YF] | 0.497
2) YPLELYERVRI [PRKCG_Y312_M317I] | 0.493
3) SENAFYLSPDI [COL6A3_Y2827] | 0.607
4) FADIAYNFRQG [PAH_Y166_H170Q_YF] | 0.5
5) KPPFSYNALIR [FOXG1_Y186_M191R] | 0.504
6) EIIPFYGMSSY [FNDC3B_Y175_T179S] | 0.616
7) LLRFLYFFVCS [SLC34A2_Y109_G106R] | 0.587

----------
Test system: c-Abl (mouse)
Experiment: phosphorylation enrichment, bacterial display (enrichment ratio); higher = better substrate or ligand; peptides without Tyr show the background
Listing of entries alongside the reported phosphorylation enrichment.
observed.property: phosphorylation enrichment

1) IFLADCRIMEG [ALOX12B_Y318_Y318C_YF] | 0.894
2) RRFLFYFSFLL [PTEN_Y177_V175L_YF] | 0.613
3) KEEEDYREENN [BMS1_Y651_K652R] | 0.877
4) SVVVPYEPTEV [TP53_Y220_P223T] | 0.885
5) NTDETYSIDNE [TUBB2B_Y200_C201S] | 0.886
6) PELINCHQHNS [BTK_Y361_Y361C] | 0.876
7) FQRLRYIKQLG [SAMHD1_Y146] | 0.617
8) GLIPAYHWVIM [NMNAT1_Y64_R66W] | 0.92

----------
Tested on: Fer (mouse)
Assay: phosphorylation enrichment, bacterial display (enrichment ratio); higher = better substrate or ligand; peptides without Tyr show the background
observed.property: phosphorylation enrichment

1) PFRSIYFSSPK [MPG_Y75_YF] | 0.595
2) GRERPYGGGGG [FUS_Y526_R521G] | 0.6
3) IFLADCRIMEG [ALOX12B_Y318_Y318C_YF] | 0.594
4) TTANRYLKVSD [MYOM2_Y871] | 0.484
5) NNRVFYGNSDC [RS1_Y177_R182C] | 0.432

----------
System: AncSZ
Assay: phosphorylation enrichment, bacterial display (enrichment ratio); higher = better substrate or ligand; peptides without Tyr show the background
Record true whenever phosphorylation enrichment is at 1 or higher; record false when lower.

1) EEGRVYVYRLS [ITGAE_Y549] | false
2) KIPGRYFETGS [PAX2_Y72_L69P_YF] | false
3) KVDKEYEVRVR [GHR_Y226] | false
4) ADCRFYTFPQM [GAMT_Y223_A224T_YF] | true
5) IGKAGYTDKVV [ENO1_Y236] | false
6) RDSQIYAVDFE [MRPS34_Y34_L33I_YF] | true
7) KIVATYRLCSE [DNAH3_Y1586] | true
